Reference source for all entries: PubChem BioAssay (NCI)

# Tested on: SK-MEL-5 melanoma
# METHOD DESCRIPTION: NCI-60 one-dose screen, 48 h (100 = growth as untreated, 0 = no growth, -100 = all killed)
# STATED CONDITIONS: 10 µM unless noted
The panel holds about 83,000 compounds, 20% with a hit somewhere; the sample as a whole holds those more often.
Give growth for every item shown.
Give the number; % is assumed, so skip it.

Give its growth value. Item: CCCCCCCCCCCCCCCCS(=O)(=O)Nc1cc(C(=O)NN)cc(C(=O)NN)c1
73.7

Give its growth value. Item: CCCCNCCC(O)c1cc2ccc(C(F)(F)F)cc2c2cc(C(F)(F)F)ccc12 (stereo not drawn)
-87.6

Give its growth value. Item: N#Cc1nc(-c2ccc(Cl)cc2)cc(-c2ccc(Nc3nc(N4CCCCC4)nc(N4CCCCC4)n3)cc2)c1N
97.6

Give its growth value. Item: Cc1ccc(NC(=O)c2[nH]c(SCCN(C)C)nc2-c2ccc(F)cc2)cc1Nc1ccc2ncn(C)c(=O)c2c1
30.8

Give its growth value. Item: CC(=O)c1cc(C(=O)c2ccc3c(c2)Sc2ccccc2N3)c2c(C)cccn12
8.21

Give its growth value. Item: Cc1cc(C)cc(CCCCCCCCCCCCCCCCCC(=O)O)c1
102

Give its growth value. Item: Clc1ccc(Nc2ncnc3c2sc2ncccc23)cc1
23.4

Give its growth value. Item: O=C(c1ccc(C(F)(F)F)c(Cl)c1)N(Cc1ccc(Cl)cc1)c1ccc(-c2cc(C(F)(F)F)[nH]n2)c(O)c1
-42.9

----------
Give growth for every item shown.
# Test system: SNB-19 CNS
# METHOD DESCRIPTION: NCI-60 one-dose screen, 48 h (100 = growth as untreated, 0 = no growth, -100 = all killed)
# STATED CONDITIONS: 10 µM unless noted
The panel holds about 83,000 compounds, 20% with a hit somewhere; the sample as a whole holds those more often.
Give the number; % is assumed, so skip it.

Give its growth value. Item: Cc1cc(N=Nc2ccc(-c3ccc(N=Nc4ccc(O)c(C(=O)O)c4)cc3)cc2)c(N)c(N=Nc2ccc(C(=O)O)cc2)c1N
95.5

Give its growth value. Item: CC1C2CCC(C2)C1COCCOCCO (stereo not given)
123

Give its growth value. Item: C/C(CC(=O)NNc1ccc([N+](=O)[O-])cc1)=N\Nc1ccc([N+](=O)[O-])cc1
104

Give its growth value. Item: N#Cc1ccc(NC(=O)Nc2nc3ccc(OC(F)(F)F)cc3s2)cc1
15.1

Give its growth value. Item: O=C(C(=O)c1cccnc1)c1cccnc1
110

----------
# System: UO-31 renal
# METHOD DESCRIPTION: NCI-60 one-dose screen, 48 h
# STATED CONDITIONS: 10 µM unless noted
The panel holds about 83,000 compounds, 20% with a hit somewhere; the sample as a whole holds those more often. Calls of active or inactive are those of the source. How the source made its calls: active means growth percent below 10; inactive means the rest.
Pick one and only one: t (active), f (inactive)

Record lookup: outcome of this test for CC(=O)c1c(O)c(C)c(O)c2c1OC1=CC(=O)/C(=C(/C)N)C(=O)C12C (stereo not drawn) ?
f

Record lookup: outcome of this test for CC(=O)N[C@@H](CCC(N)=O)C(=O)O ?
f

Record lookup: outcome of this test for O=C(NC1CC1)c1ccc(-c2nc3ccc4[nH]ncc4c3c3c2CCCC3)cc1 ?
f

Record lookup: outcome of this test for C/C(=C\C(=N\N=C(N)N)c1ccc(Cl)cc1)c1ccc(Cl)cc1 ?
t

Record lookup: outcome of this test for COC(=O)/C=C/c1cc(OC(C)=O)c2c(c1)[C@@H](C(=O)OC)[C@H](c1ccc(OC(C)=O)c(OC(C)=O)c1)O2 ?
f

Record lookup: outcome of this test for COc1ccc2nc(NC(=O)/C(=C/c3cc(OC)c(OC)c(OC)c3)c3ccc(OC)c(OC)c3)sc2c1 ?
f

Record lookup: outcome of this test for CCN(CC)Cc1cc(Nc2nc(NC3CCC(N(C)C)CC3)c3ccccc3n2)ccc1OC (stereo not drawn) ?
f

Record lookup: outcome of this test for CCc1ccc(-c2ccc(NC3CCCCCC3)nn2)cc1S(N)(=O)=O ?
f

Record lookup: outcome of this test for COc1ccc(/C=C/C(=O)c2ccc(NC(=O)CSc3nnc(-c4ccc(OC)cc4)n3-c3ccccc3)cc2)cc1 ?
f

Record lookup: outcome of this test for Cc1ccc2oc(=O)cc(-c3nc4ccc([N+](=O)[O-])cc4[nH]3)c2c1 ?
f

Record lookup: outcome of this test for Oc1c(C(c2ccc(F)cc2)N2CCCCC2)ccc2cncnc12 (stereo not drawn) ?
f

Record lookup: outcome of this test for CC(=O)O[C@H]1[C@H](CC#CC#CC[C@@H]2C[C@]3(C)[C@H]4CC=C5[C@H]6[C@@H](C)[C@H](C)CC[C@]6(C(=O)NCCN(CCN)CCN)CC[C@@]5(C)[C@]4(C)CC[C@H]3C(C)(C)[C@H]2OC(C)=O)C[C@]2(C)[C@H]3CC=C4[C@H]5[C@@H](C)[C@H](C)CC[C@]5(C(=O)NCCN(CCN)CCN)CC[C@@]4(C)[C@]3(C)CC[C@H]2C1(C)C ?
f

Record lookup: outcome of this test for O=C(CI)NCCNc1cccc2c(S(=O)(=O)O)cccc12 ?
f

Record lookup: outcome of this test for CC(C)[C@H](CN)NC[C@H](C)NS(=O)(=O)c1ccc(C(C)(C)C)cc1 ?
f

Record lookup: outcome of this test for N#Cc1nc(-c2cccc(Br)c2)cc(-c2ccc(Nc3nc(N4CCCCC4)nc(N4CCCCC4)n3)cc2)c1N ?
t

Record lookup: outcome of this test for COc1ccc(/C=C2\Cc3c(Br)cccc3C2=O)c(OC)c1 ?
f

Record lookup: outcome of this test for NC(=Nc1ccccc1)SCCCSC(N)=Nc1ccccc1 ?
f

Record lookup: outcome of this test for Fc1[nH]nc2ccc([C@@H]3Nc4ccc5[nH]ncc5c4[C@H]4C5CCC(C5)[C@@H]34)cc12 (stereo partly drawn) ?
f
